Can you tell me viability, T/C for the items I'm about to list?
tested on: 935938-334-R-J1-PDC complex spheroid viability; assay: Anticancer human tumor 935938-334-R-J1-PDC patient-derived small intestine adenocarcinoma cell line growth inhibition [POLQ]; conditions: second compound 0.1 µM; first compound 0.316 µM; stronger effect = lower value
Numbers only, in %.

compound	viability, T/C (%)
CCc1cc2c(N3CCc4c(cc(Cn5ccnc5)cc4-c4cn(C)nc4C(F)(F)F)C3=O)ccnc2c(OC)n1 + Nc1ccc(C#CCN(C(=O)Cc2ncc(C(F)(F)F)cc2C(F)(F)F)c2ccc(F)cc2)nn1	64.5

Lab note: each compound below needs its viability, T/C filled in.
1. C=CCn1c(=O)c2cnc(Nc3ccc(N4CCN(C)CC4)cc3)nc2n1-c1cccc(C(C)(C)O)n1 + Cc1cccc(N(C)C(=O)C2C(O)CCN2c2nc(C)cc(C(F)(F)F)c2C#N)c1
2. C#Cc1c(F)ccc2cc(O)cc(-c3ncc4c(N5CC6CCC(C5)N6)nc(OCC56CCCN5CC(F)C6)nc4c3F)c12 (stereo not given) + COC1C(OC(N)=O)C(O)C(Oc2ccc3c(O)c(NC(=O)c4ccc(O)c(CC=C(C)C)c4)c(=O)oc3c2C)OC1(C)C
3. CC1COCCN1c1cc(C2(S(C)(=N)=O)CC2)nc(-c2ccnc3[nH]ccc23)n1 (stereo not given) + Cc1cccc(N(C)C(=O)C2C(O)CCN2c2nc(C)cc(C(F)(F)F)c2C#N)c1
4. CC(C)n1c(=O)n(C)c2cnc3cc(F)c(-c4ccc(OCCCN5CCCCC5)nc4)cc3c21 + Nc1ccc(C#CCN(C(=O)Cc2ncc(C(F)(F)F)cc2C(F)(F)F)c2ccc(F)cc2)nn1
5. COc1cc2cc(C(=O)CCC(=O)O)sc2cc1OC + COC1C(OC(N)=O)C(O)C(Oc2ccc3c(O)c(NC(=O)c4ccc(O)c(CC=C(C)C)c4)c(=O)oc3c2C)OC1(C)C
6. CCCS(=O)(=O)Nc1ccc(F)c(C(=O)c2c[nH]c3ncc(-c4ccc(Cl)cc4)cc23)c1F + COC1C(OC(N)=O)C(O)C(Oc2ccc3c(O)c(NC(=O)c4ccc(O)c(CC=C(C)C)c4)c(=O)oc3c2C)OC1(C)C

Reply:
1. 66
2. 111
3. 86.1
4. 111
5. 97.9
6. 103

For every listed record, write down its viability, T/C.
1. CNCc1ccc(-c2[nH]c3cc(F)cc4c3c2CCNC4=O)cc1 + Cc1cccc(N(C)C(=O)C2C(O)CCN2c2nc(C)cc(C(F)(F)F)c2C#N)c1
2. C=CCn1c(=O)c2cnc(Nc3ccc(N4CCN(C)CC4)cc3)nc2n1-c1cccc(C(C)(C)O)n1 + COC1C(OC(N)=O)C(O)C(Oc2ccc3c(O)c(NC(=O)c4ccc(O)c(CC=C(C)C)c4)c(=O)oc3c2C)OC1(C)C
3. CC1COCCN1c1cc(-c2ccnn2C)c2ccnc(-c3ccn[nH]3)c2n1 (stereo not given) + Cc1cccc(N(C)C(=O)C2C(O)CCN2c2nc(C)cc(C(F)(F)F)c2C#N)c1

Reply:
78.2
71.4
29.4

====

tested on: 935938-334-R-J1-PDC complex spheroid viability; assay: Anticancer human tumor 935938-334-R-J1-PDC cell line growth inhibition [POLQ]; conditions: second compound 1 µM; first compound 0.1 µM; stronger effect = lower value;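 note: spheroids exposed to drugs for seven days before viability read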;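 for viability, T/C: 100% = DMSO vehicle control wells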
# if measured viability, T/C < 80%: label 1  # else: label 0

Some entries whose results are on file:
molecule	label-class
CCc1c2c(nc3ccc(O)cc13)-c1cc3c(c(=O)n1C2)COC(=O)[C@]3(O)CC + COC1C(OC(N)=O)C(O)C(Oc2ccc3c(O)c(NC(=O)c4ccc(O)c(CC=C(C)C)c4)c(=O)oc3c2C)OC1(C)C	label 1
O=c1[nH]cc(F)c(=O)[nH]1 + Cc1cccc(N(C)C(=O)C2C(O)CCN2c2nc(C)cc(C(F)(F)F)c2C#N)c1	label 0
C=CCn1c(=O)c2cnc(Nc3ccc(N4CCN(C)CC4)cc3)nc2n1-c1cccc(C(C)(C)O)n1 + Nc1ccc(C#CCN(C(=O)Cc2ncc(C(F)(F)F)cc2C(F)(F)F)c2ccc(F)cc2)nn1	label 0
Nc1ccn(C2OC(CO)C(O)C2(F)F)c(=O)n1 (configuration not stated) + Nc1ccc(C#CCN(C(=O)Cc2ncc(C(F)(F)F)cc2C(F)(F)F)c2ccc(F)cc2)nn1	label 1
CCc1c2c(nc3ccc(O)cc13)-c1cc3c(c(=O)n1C2)COC(=O)[C@]3(O)CC + Cc1cccc(N(C)C(=O)C2C(O)CCN2c2nc(C)cc(C(F)(F)F)c2C#N)c1	label 1

Ask: Dear colleague, could you confirm whether viability, T/C of COc1cccc(OCCCN)c1-c1cc(Nc2cnc(C#N)cn2)n[nH]1 + Nc1ccc(C#CCN(C(=O)Cc2ncc(C(F)(F)F)cc2C(F)(F)F)c2ccc(F)cc2)nn1 falls below 80%? Thanks.
Reply: label 1

====

tested on: 935938-334-R-J1-PDC complex spheroid viability; experiment: Anticancer human tumor 935938-334-R-J1-PDC cell line growth inhibition [POLQ]; details: curve of first compound; second compound 0.316 µM;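 note: spheroids exposed to drugs for seven days before viability read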
property-label: IC50

Take a look at these entries with their results.
compound	IC50
Cn1ncnc1[C@H]1c2n[nH]c(=O)c3cc(F)cc(c23)N[C@@H]1c1ccc(F)cc1 + COC1C(OC(N)=O)C(O)C(Oc2ccc3c(O)c(NC(=O)c4ccc(O)c(CC=C(C)C)c4)c(=O)oc3c2C)OC1(C)C	> 0.1 µM
C=CC(=O)N1CCN(c2nc(=O)n(-c3c(C)ccnc3C(C)C)c3nc(-c4c(O)cccc4F)c(F)cc23)C(C)C1 (stereo not given) + COC1C(OC(N)=O)C(O)C(Oc2ccc3c(O)c(NC(=O)c4ccc(O)c(CC=C(C)C)c4)c(=O)oc3c2C)OC1(C)C	> 10 µM
CC(C)n1c(=O)n(C)c2cnc3cc(F)c(-c4ccc(OCCCN5CCCCC5)nc4)cc3c21 + Cc1cccc(N(C)C(=O)C2C(O)CCN2c2nc(C)cc(C(F)(F)F)c2C#N)c1	> 10 µM
COc1cccc2c1C(=O)c1c(O)c3c(c(O)c1C2=O)CC(O)(C(=O)CO)CC3OC1CC(N)C(O)C(C)O1 (stereo not given) + Nc1ccc(C#CCN(C(=O)Cc2ncc(C(F)(F)F)cc2C(F)(F)F)c2ccc(F)cc2)nn1	< 0.0316 µM
CCCS(=O)(=O)Nc1ccc(F)c(C(=O)c2c[nH]c3ncc(-c4ccc(Cl)cc4)cc23)c1F + Cc1cccc(N(C)C(=O)C2C(O)CCN2c2nc(C)cc(C(F)(F)F)c2C#N)c1	9.18 µM
CNCc1ccc(-c2[nH]c3cc(F)cc4c3c2CCNC4=O)cc1 + COC1C(OC(N)=O)C(O)C(Oc2ccc3c(O)c(NC(=O)c4ccc(O)c(CC=C(C)C)c4)c(=O)oc3c2C)OC1(C)C	> 10 µM
C#Cc1c(F)ccc2cc(O)cc(-c3ncc4c(N5CC6CCC(C5)N6)nc(OCC56CCCN5CC(F)C6)nc4c3F)c12 (stereo not given) + Cc1cccc(N(C)C(=O)C2C(O)CCN2c2nc(C)cc(C(F)(F)F)c2C#N)c1	1.49 µM
O=C(c1cc(Cc2n[nH]c(=O)c3ccccc23)ccc1F)N1CCN(C(=O)C2CC2)CC1 + Cc1cccc(N(C)C(=O)C2C(O)CCN2c2nc(C)cc(C(F)(F)F)c2C#N)c1	> 10 µM

Batch of 2 compounds: report IC50 for each.
1. CCc1c2c(nc3ccc(O)cc13)-c1cc3c(c(=O)n1C2)COC(=O)[C@]3(O)CC + Nc1ccc(C#CCN(C(=O)Cc2ncc(C(F)(F)F)cc2C(F)(F)F)c2ccc(F)cc2)nn1
2. O=C(Nc1ccc(O)c(NS(=O)(=O)c2ccc(F)cc2)c1)c1ccc(-c2ccccc2)cc1 + COC1C(OC(N)=O)C(O)C(Oc2ccc3c(O)c(NC(=O)c4ccc(O)c(CC=C(C)C)c4)c(=O)oc3c2C)OC1(C)C

Reply:
1. 0.0183 µM
2. > 10 µM

====

system: 935938-334-R-J1-PDC complex spheroid viability; test: Anticancer human tumor 935938-334-R-J1-PDC cell line growth inhibition [POLQ]; settings: second compound 0.316 µM; first compound 0.316 µM; stronger effect = lower value;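 note: spheroids exposed to drugs for seven days before viability read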;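 for viability, T/C: 100% = DMSO vehicle control wells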
property-label: viability, T/C (%)
Answers are plain numbers, in %.

compound	viability, T/C, %
COc1cccc(OCCCN)c1-c1cc(Nc2cnc(C#N)cn2)n[nH]1 + Cc1cccc(N(C)C(=O)C2C(O)CCN2c2nc(C)cc(C(F)(F)F)c2C#N)c1	10.1
COc1cccc2c1C(=O)c1c(O)c3c(c(O)c1C2=O)CC(O)(C(=O)CO)CC3OC1CC(N)C(O)C(C)O1 (stereo not given) + Cc1cccc(N(C)C(=O)C2C(O)CCN2c2nc(C)cc(C(F)(F)F)c2C#N)c1	26.8
COc1cc(C2c3cc4c(cc3C(OC3OC5COC(C)OC5C(O)C3O)C3COC(=O)C23)OCO4)cc(OC)c1O (stereo not given) + Cc1cccc(N(C)C(=O)C2C(O)CCN2c2nc(C)cc(C(F)(F)F)c2C#N)c1	74.1

For each of the compounds below, state viability, T/C.
1. Nc1ccn(C2OC(CO)C(O)C2(F)F)c(=O)n1 (stereo not given) + COC1C(OC(N)=O)C(O)C(Oc2ccc3c(O)c(NC(=O)c4ccc(O)c(CC=C(C)C)c4)c(=O)oc3c2C)OC1(C)C
2. O=C(c1cc(Cc2n[nH]c(=O)c3ccccc23)ccc1F)N1CCN(C(=O)C2CC2)CC1 + COC1C(OC(N)=O)C(O)C(Oc2ccc3c(O)c(NC(=O)c4ccc(O)c(CC=C(C)C)c4)c(=O)oc3c2C)OC1(C)C

Reply:
17.7
90.3
